- experimentalSystem: KRas G12D (Homo sapiens, UniProt P01116, G12D);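 further: TR-FRET displacement binding assay on KRas, read after a one-hour incubation at room temperature, IC50 fitted from percent-of-control values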
- Sequence (P01116 1-169 isoform P01116-2 G12D): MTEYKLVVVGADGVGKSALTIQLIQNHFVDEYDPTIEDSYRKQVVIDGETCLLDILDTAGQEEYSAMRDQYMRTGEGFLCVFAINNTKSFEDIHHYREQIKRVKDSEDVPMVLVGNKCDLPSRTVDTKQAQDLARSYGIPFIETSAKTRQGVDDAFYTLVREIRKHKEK
- assaySummary: biochemical
pIC50: −log10 of the molar value.
attributeMeasured: pIC50

1) CCc1c(F)ccc2cc(O)cc(-c3ncc4c(Nc5cnn(-c6ccncc6)c5)nc(OC[C@@]56CCCN5C[C@H](F)C6)nc4c3F)c12 [Example 297] : 7.27
2) O=C1NCC12CCCN(c1nc(OC[C@@]34CCCN3C[C@H](F)C4)nc3c(F)c(-c4cc(O)cc5ccc(F)c(Br)c45)ncc13)C2 (stereo partly drawn) [Example 406] : 8.40
3) OC1CCCN(c2nc(OCC34CCCN3CCC4)nc3c(F)c(-c4cccc5cccc(F)c45)ncc23)CC1 (stereo not drawn) [Example 129] : 5.65
